# assayed-target: FL huCD4 R8A (Homo sapiens, UniProt P01730, R8A)
# assay-name: CADA down-modulation of cellular huCD4
# Format: cell-based
# measurement-setup: read-out: Cellular huCD4 IC50 (μM) Mean, HEK293T, CADA 48h

| molecule | IC50 |
| --- | --- |
| C=C1CN(S(=O)(=O)c2ccc(C)cc2)CCCN(Cc2ccccc2)CCCN(S(=O)(=O)c2ccc(C)cc2)C1 [CADA, Cyclotriazadisulfonamide] | 4.2 µM |

---

# assayed-target: huCD4_1–32-YFP K26A (Homo sapiens, UniProt P01730, K26A)
# assay-name: CADA inhibition of huCD4_1–32-YFP secretion
# Format: cell-based
# measurement-setup: read-out: Secreted YFP IC50 (μM) Mean, HEK293T, CADA 48h

| compound | IC50 |
| --- | --- |
| C=C1CN(S(=O)(=O)c2ccc(C)cc2)CCCN(Cc2ccccc2)CCCN(S(=O)(=O)c2ccc(C)cc2)C1 [CADA, Cyclotriazadisulfonamide] | > 50 µM |
